Consider the following molecules; for each one, report its Papp at 4 h, 10 µM.
Test: Permeability of compound at 10 uM incubated for 4 hrs by PAMPA
Format: ADME
Settings: read-out: permeability

// returns reported Papp at 4 h, 10 µM for input C[C@@H](Nc1cc(N2CCN(C(N)=O)CC2)nc2nc(C3CC3)nn12)c1ccc2ccccc2c1 < 0.0185 ×10⁻⁶ cm/s

// returns reported Papp at 4 h, 10 µM for input NC(=O)N1c2ccccc2C=Cc2ccccc21 [CARBAMAZEPINE] 5.41 ×10⁻⁶ cm/s

// returns reported Papp at 4 h, 10 µM for input CC(C)(C)NCC(O)COc1cccc2c1CC(O)C(O)C2 (stereo not drawn) < 0.0185 ×10⁻⁶ cm/s

----------
Consider the following molecules; for each one, report its remaining at 0.5 h, 100 µM.
Assay: Metabolic stability in rat liver microsomes assessed as compound remaining at 100 uM preincubated for 10 mins followed by NADPH addition and measured after 30 mins by LC-MS/MS analysis
Assay type: ADME, Microsome
Settings: time 40 min, read-out: Stability
Response body: numeric value in %, unit text excluded.

// returns reported remaining at 0.5 h, 100 µM for input CC(=O)N1CCN(c2cc(N[C@H](C)c3ccc4ccccc4c3)n3nc(C4CCCC4)nc3n2)CC1 4.2

// returns reported remaining at 0.5 h, 100 µM for input CC(=O)N1CCN(c2cc(N[C@H](C)c3ccc4ccccc4c3)n3nc(C4CCC4)nc3n2)CC1 0.2

// returns reported remaining at 0.5 h, 100 µM for input C[C@@H](Nc1cc(N2CCN(C(N)=O)CC2)nc2nc(C3CC3)nn12)c1ccc2ccccc2c1 0.3

----------
Target: P2X purinoceptor 3 (Homo sapiens)
Sequence (P56373 whole entry): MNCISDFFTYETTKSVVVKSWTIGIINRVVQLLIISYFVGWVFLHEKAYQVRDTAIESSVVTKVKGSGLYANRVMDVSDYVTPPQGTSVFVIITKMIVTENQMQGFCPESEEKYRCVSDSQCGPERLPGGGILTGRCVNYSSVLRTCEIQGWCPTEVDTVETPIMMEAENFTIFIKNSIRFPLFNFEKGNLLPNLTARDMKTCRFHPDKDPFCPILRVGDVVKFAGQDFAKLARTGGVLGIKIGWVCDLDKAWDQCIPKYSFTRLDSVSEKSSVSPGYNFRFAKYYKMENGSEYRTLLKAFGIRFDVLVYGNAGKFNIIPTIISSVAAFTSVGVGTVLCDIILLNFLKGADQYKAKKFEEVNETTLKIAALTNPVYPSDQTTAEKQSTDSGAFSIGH
assay-readout: pIC50
The value called pIC50 is obtained by taking minus log10 of the concentration in mol/L.

// returns reported pIC50 for input CNC(=O)c1cc(F)c(-c2nc3cc(C)ccn3c2CC2CCCN(C(=O)OC)C2)c(F)c1 (single isomer, unassigned) 7.81

----------
Molecular target: P2X2/P2X3 heterotrimeric receptor (Homo sapiens, UniProt P56373+Q9UBL9)
Sequence (Q9UBL9 whole entry): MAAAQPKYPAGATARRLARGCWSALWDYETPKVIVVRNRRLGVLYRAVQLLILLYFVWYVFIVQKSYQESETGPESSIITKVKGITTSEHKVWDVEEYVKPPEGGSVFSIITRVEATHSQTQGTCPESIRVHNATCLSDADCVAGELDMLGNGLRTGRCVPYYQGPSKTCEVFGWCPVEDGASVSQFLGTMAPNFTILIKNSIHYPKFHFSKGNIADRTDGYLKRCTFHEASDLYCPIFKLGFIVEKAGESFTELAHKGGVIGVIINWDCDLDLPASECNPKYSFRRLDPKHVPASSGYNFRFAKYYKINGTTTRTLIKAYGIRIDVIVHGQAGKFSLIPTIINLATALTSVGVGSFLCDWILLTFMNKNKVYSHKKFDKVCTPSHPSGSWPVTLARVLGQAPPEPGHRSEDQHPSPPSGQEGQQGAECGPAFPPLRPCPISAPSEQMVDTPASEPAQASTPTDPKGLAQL
Sequence (P56373 whole entry): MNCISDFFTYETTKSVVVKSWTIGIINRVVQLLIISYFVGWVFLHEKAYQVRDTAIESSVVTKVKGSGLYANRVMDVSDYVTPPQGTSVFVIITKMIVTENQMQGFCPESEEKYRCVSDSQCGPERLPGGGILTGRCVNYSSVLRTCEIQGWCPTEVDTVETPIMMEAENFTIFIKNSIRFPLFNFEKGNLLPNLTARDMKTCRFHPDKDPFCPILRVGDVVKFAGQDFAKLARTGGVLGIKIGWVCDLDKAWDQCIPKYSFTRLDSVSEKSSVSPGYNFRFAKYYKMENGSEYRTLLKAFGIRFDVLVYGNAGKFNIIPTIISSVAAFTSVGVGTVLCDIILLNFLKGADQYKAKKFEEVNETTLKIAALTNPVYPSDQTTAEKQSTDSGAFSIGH
Assay: Antagonist activity at human P2X2/3 receptor expressed in HEK293 cells preincubated for 30 mins followed by alpha, beta me-ATP addition and measured for 10 mins by Fluo-8 dye based FLIPR assay
pIC50: −log10 of the molar value.
assay-readout: pIC50

// returns reported pIC50 for input CNC(=O)c1cc(F)c(-c2nc3cc(C)ccn3c2CC2CCCN(C(=O)OC)C2)c(F)c1 (single isomer, unassigned) < 4.62

----------
Biological target: P2X2/P2X3 heterotrimeric receptor (Homo sapiens, UniProt P56373+Q9UBL9)
Sequence (Q9UBL9 whole entry): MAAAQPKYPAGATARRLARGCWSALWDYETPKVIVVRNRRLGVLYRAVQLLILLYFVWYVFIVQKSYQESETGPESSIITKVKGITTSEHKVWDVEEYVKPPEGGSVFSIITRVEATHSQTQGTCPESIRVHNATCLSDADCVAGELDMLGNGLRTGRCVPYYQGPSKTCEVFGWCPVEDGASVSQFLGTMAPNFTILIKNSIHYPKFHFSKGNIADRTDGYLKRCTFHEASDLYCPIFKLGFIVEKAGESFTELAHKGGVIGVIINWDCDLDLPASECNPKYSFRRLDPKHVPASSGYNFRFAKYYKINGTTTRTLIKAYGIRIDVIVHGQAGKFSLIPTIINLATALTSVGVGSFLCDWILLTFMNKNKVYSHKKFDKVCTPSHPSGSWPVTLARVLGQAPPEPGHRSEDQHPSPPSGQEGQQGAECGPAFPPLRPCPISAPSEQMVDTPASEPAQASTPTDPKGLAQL
Sequence (P56373 whole entry): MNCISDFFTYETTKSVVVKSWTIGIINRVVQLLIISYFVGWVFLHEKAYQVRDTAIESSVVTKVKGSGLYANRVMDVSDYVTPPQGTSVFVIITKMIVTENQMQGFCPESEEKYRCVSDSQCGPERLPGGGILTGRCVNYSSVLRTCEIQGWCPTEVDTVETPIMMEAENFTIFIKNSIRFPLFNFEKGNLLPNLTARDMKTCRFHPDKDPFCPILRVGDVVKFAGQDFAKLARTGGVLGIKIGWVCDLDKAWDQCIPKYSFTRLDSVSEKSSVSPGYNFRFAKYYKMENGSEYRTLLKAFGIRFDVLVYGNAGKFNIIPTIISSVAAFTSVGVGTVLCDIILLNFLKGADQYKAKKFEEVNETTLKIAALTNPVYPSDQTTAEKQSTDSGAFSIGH
Test: Antagonist activity at human P2X2/3R expressed in HEK293 cells incubated for 18 hrs by Fluo-4 dye based microplate reader assay
assay-readout: pIC50
The value called pIC50 is obtained by taking minus log10 of the concentration in mol/L.

// returns reported pIC50 for input CNC(=O)c1cc(F)c(-c2nc3cc(C)ccn3c2CC2CCCN(C(=O)OC)C2)c(F)c1 (single isomer, unassigned) 5.30

----------
Target: P2X purinoceptor 1 (Homo sapiens, UniProt P51575)
Sequence (P51575 whole entry): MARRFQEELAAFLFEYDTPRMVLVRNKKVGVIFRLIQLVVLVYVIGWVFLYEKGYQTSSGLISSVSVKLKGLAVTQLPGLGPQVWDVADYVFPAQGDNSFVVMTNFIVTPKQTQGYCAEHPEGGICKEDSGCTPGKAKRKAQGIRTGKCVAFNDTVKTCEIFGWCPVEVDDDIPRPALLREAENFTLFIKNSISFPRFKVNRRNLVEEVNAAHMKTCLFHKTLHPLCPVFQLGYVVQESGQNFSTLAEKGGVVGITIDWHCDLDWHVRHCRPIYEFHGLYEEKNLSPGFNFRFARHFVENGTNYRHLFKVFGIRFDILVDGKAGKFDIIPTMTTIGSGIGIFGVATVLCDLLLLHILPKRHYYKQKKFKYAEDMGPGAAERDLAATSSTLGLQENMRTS
Experiment: Antagonist activity at human P2X1 receptor expressed in 1321N1 cells incubated for 30 mins in presence of ATP by Fluo-4 dye based microplate reader assay
assay-readout: IC50 (µM)
Response body: numeric value in µM, unit text excluded.

// returns reported IC50 for input C[C@@H](Nc1cc(N2CCN(C(N)=O)CC2)nc2nc(C3CC3)nn12)c1ccc2ccccc2c1 4.28

----------
Consider the following compounds; for each one, report its remaining at 0.5 h, 100 µM.
Assay: Metabolic stability in mouse liver microsomes assessed as compound remaining at 100 uM preincubated for 10 mins followed by NADPH addition and measured after 30 mins by LC-MS/MS analysis
Type: ADME, Microsome
Details: time 40 min, read-out: Stability

// returns reported remaining at 0.5 h, 100 µM for input CC(=O)N1CCN(c2cc(N[C@H](C)c3ccc4ccccc4c3)n3nc(C4CCC4)nc3n2)CC1 18%

// returns reported remaining at 0.5 h, 100 µM for input CC(=O)N1CCN(c2cc(N[C@H](C)c3ccc4ccccc4c3)n3nc(C4CCCC4)nc3n2)CC1 15.2%

// returns reported remaining at 0.5 h, 100 µM for input C[C@@H](Nc1cc(N2CCN(C(N)=O)CC2)nc2nc(C3CC3)nn12)c1ccc2ccccc2c1 50.6%
